Method description: Pharmacokinetic study of CLDN18.2-linker conjugates (serum ELISA, NCA)
Format: in vivo, BALB/c mice
Measurement conditions: BALB/c mice, intravenous, about 1 mg/kg, serum, over 48 hours
Method: The in vivo pharmacokinetic profile of the CLDN18.2-linker conjugates was analyzed. Briefly, BALB/c mice were administered with the conjugates by intravenous injection at a dose of about 1 mg/kg. Then, whole blood of the animal was collected at different time points over 48 hours. The whole blood was collected into a tube without anticoagulation and maintained at room temperature for more than 30 minutes, followed by centrifuge at approximately 5000 rpm at 4° C. for 5 minutes to obtain serum. […]
Vd values for the molecules below.
Express your answer in L/kg, writing the number without its unit.

Tell me its Vd given CLDN18.2-L008: Claudin 18.2 sdAb (SEQ ID NO. 1) conjugated with functional linker L008 (conjugate, functional linker L008 conjugated) VHH: EVQLVESGGGLVQPGGSLRLSCAASGSFFRIVAMGWYRQAPGSQRELVATITRGGSTYYADSVKGRFTISRDNAKNTLYLQMNSLRAEDTAVYYCNVRVEVPFMQPNDYWGQGTLVTVSS as the entry. 0.375

Tell me its Vd given CLDN18.2-L005: Claudin 18.2 sdAb (SEQ ID NO. 1) conjugated with functional linker L005 (conjugate, functional linker L005 conjugated) VHH: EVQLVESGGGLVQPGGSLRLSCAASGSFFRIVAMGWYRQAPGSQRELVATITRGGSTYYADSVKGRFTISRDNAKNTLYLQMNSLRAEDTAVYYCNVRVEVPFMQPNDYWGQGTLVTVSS as the entry. 0.284

Tell me its Vd given CLDN18.2-DOTAGA: Claudin 18.2 sdAb (SEQ ID NO. 1) conjugated with DOTAGA, used as control for chelating imaging radioisotope (conjugate, DOTAGA chelator conjugated) VHH: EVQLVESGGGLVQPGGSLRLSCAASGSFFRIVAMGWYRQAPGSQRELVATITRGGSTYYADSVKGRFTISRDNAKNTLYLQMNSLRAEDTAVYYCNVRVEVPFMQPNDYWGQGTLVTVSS as the entry. 0.245
